- run.parameters: in methanol, 303.15 K
assay.metric: solubility (mole fraction)

Prompt line: solubility (mole fraction) for CC(C)(c1cc(Br)c(O)c(Br)c1)c1cc(Br)c(O)c(Br)c1 ?
Response line: 0.0511

---

- run.parameters: in ethanol, 313.15 K
assay.metric: solubility (mole fraction)
Respond with the number and no other words.

Prompt line: # input molecule: CC(C)(c1cc(Br)c(O)c(Br)c1)c1cc(Br)c(O)c(Br)c1 ; wanted: its solubility (mole fraction)
Response line: 0.0558

---

- run.parameters: in n-butanol, 323.15 K
assay.metric: solubility (mole fraction)
# answer = number (no unit)

Prompt line: Requested read-out: solubility (mole fraction). Entry: CC(C)(c1cc(Br)c(O)c(Br)c1)c1cc(Br)c(O)c(Br)c1
Response line: 0.0642
